Consider the following molecules; for each one, report its AC50.
Test: Luminescence Cell-Based Dose Retest to Confirm Inhibitors of Cancer Stem Cells. [Related pubchem assays (depositor defined):AID2717, AID2721];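 also: cells exposed to compound for roughly 70 hours or longer before luminescence read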
Assay type: functional
Details: Homo sapiens
Active and inactive are the calls of the source. Rule as the data show it: actives have a measured AC50 and inactives only a lower limit.

The molecule `COc1ccc(OC)c(NC(=O)NNC(=O)COc2ccc(-c3ccccc3)cc2)c1` showed AC50 equal to 47.3 µM (active)

Field AC50 (entry `COc1ccc(OC)c(NC(=O)c2nc(S(=O)(=O)Cc3ccccc3)ncc2Cl)c1` ) reads 3.48 µM (active)

Lookup result for CC(C)(C)c1ccc2c(c1)OC(C(=O)N/N=C\c1ccc[nH]1)CO2 (stereo unspecified) ; measured AC50: 1.94 µM (active)

The molecule identified as `COc1ccccc1Nc1ccc(NC(=O)c2cccc([N+](=O)[O-])c2C)cc1` registered its AC50 at 3.32 µM (active)

Entry `CCCCCCC[C@@H](C/C=C/CCC(=O)N(C)C/C(=C/Cl)C/C(=C\C(=O)N1CC(OC)=CC1=O)OC)OC` — recorded AC50 = 4.12 µM (active)

Record `O=C1NC(=O)N(Cc2ccccc2)C(=O)/C1=C\C=C\c1ccco1` , field AC50: 1.48 µM (active)
